Give measured TGI for each item. Keep answers brief.
- Test system: SF-539 CNS
- Protocol notes: NCI tumour cell line growth inhibition, 48 h

Reference set, count: 10
{"columns": ["Compound", "Measured value"],
 "data": [
  ["CC1(C(O)c2ccccc2)CN(C(C)(C)C)C(=O)/C1=C\\Sc1ccccc1 (stereo not drawn)", "> 100 µM"],
  ["CSC(=S)N/N=C(\\C)c1ccccn1", "3.54 µM"],
  ["CC(=O)OC1COC(N2C(=O)C(=O)c3cc(Br)c([N+](=O)[O-])cc32)C(OC(C)=O)C1OC(C)=O (stereo not drawn)", "> 100 µM"],
  ["CC(C)(C)c1ccc(-c2nnc(SCc3ccc(Cl)cc3)n2-c2cccc(C(F)(F)F)c2)cc1", "> 100 µM"],
  ["Cc1nc2c(=O)[nH]c(=O)nc-2n(CCO)c1C", "> 100 µM"],
  ["O=C1C(c2ccccc2)=C(c2ccccc2)C(c2ccccc2)/C1=C1\\C(=O)C(c2ccccc2)=C(c2ccccc2)C1c1ccccc1 (stereo not drawn)", "> 100 µM"],
  ["COC(=O)C1Cc2c([nH]c3ccccc23)C=N1 (stereo not drawn)", "> 100 µM"],
  ["O=Cc1cc(O)c(O)c(O)c1-c1c(C=O)cc(O)c(O)c1O", "> 100 µM"],
  ["O=Nc1c(-c2cccc([N+](=O)[O-])c2)nc2ncccn12", "31 µM"],
  ["CCCCCCCCSC1=CC(=O)C(OC)=C(OC)C1=O", "5.9 µM"]
]}

Hello, I would appreciate it if you could give TGI for each entry below.
1. CC1SC(c2cccs2)N(NC(=O)C(O)c2ccccc2)C1=O (stereo not drawn)
2. Fc1ccc(Nc2nc(Nc3ccc(-c4nc5ccccc5[nH]4)cc3)nc(N3CCCC3)n2)cc1
3. COc1ccccc1NC(=O)C1=C(C)NC(C)=C(C(=O)Nc2ccccc2OC)C1c1ccc(C(C)C)cc1
4. COc1cc(O)c(C(=O)/C=C/c2ccc(O)cc2)cc1Oc1ccc(C(=O)/C=C/c2ccc(O)cc2)c(O)c1
5. NS(=O)(=O)c1ccc(CNC(=S)NC(=O)Nc2ccc(Cl)c(Cl)c2)cc1
6. CC1(c2cccc(C3CCC4(C=CC3=O)OCCO4)c2)OCCO1 (stereo not drawn)
7. O=c1[nH]c2ccc(CC(=S)N3CCN(c4ccccc4)CC3)cc2s1
8. CC(=O)NC1C(OCC(=O)NC(C)C(=O)NC(CCC(=O)NCCCCCNc2ccc([N+](=O)[O-])c3[nH]c4ccccc4c(=O)c23)C(N)=O)C(O)C(CO)OC1(C)OCc1ccccc1 (stereo not drawn)

Marked response:
1: > 100 µM; 2: 4.26 µM; 3: > 100 µM; 4: 5.51 µM; 5: 41.5 µM; 6: 28.5 µM; 7: > 100 µM; 8: > 50 µM
